Data provenance is patent US20210246455A1.

System: MAPK pathway activation (mCherry-Erk nuclear localization) in U2OS MAPK R21 cells expressing K-Ras(G12D)
Assay: MAPK reporter assay, nuclear versus cytoplasmic mCherry-Erk, U2OS MAPK R21
Type: cell-based
Settings: Homo sapiens, cells expressing K-Ras(G12D), 1 hour after compound addition, read-out: IC50 (inhibition of nuclear localization of mCherry-Erk)

{"columns": ["CHEM_SMILES", "IC50, nM"],
 "data": [
  ["CC(=O)Nc1cccc(-n2c(=O)n(C3CC3)c(=O)c3c(Nc4ccc(I)cc4F)n(C)c(=O)c(C)c32)c1", 28]
]}

====

Tested on: MAPK pathway activation (mCherry-Erk nuclear localization) in U2OS MAPK R21 cells expressing K-Ras(G12D)
Test: MAPK reporter assay, nuclear versus cytoplasmic mCherry-Erk, U2OS MAPK R21
Format: cell-based
Conditions: Homo sapiens, 1 h, read-out: IC50 (inhibition of nuclear localization of mCherry-Erk)
Protocol: Three MAPK reporter cell lines were used to visualize the MAPK pathway in live cells and to analyze dose responses of MAPK inhibitors. […] For each assay, the images were analyzed using CellProfiler (open source software for image analysis, Kamensty, L. et al., Bioinformatics (2011)) for quantification of the ratio of nuclear versus cytoplasmic Erk fluorescence intensity and the data generated was further processed to determine compound IC50S. […]

{"columns": ["CHEM_SMILES", "IC50 (nM)"],
 "data": [
  ["O=C(NOC[C@H](O)CO)c1ccc(F)c(F)c1Nc1ccc(I)cc1F", 76]
]}

====

Tested on: MAPK pathway activation (mCherry-Erk nuclear localization) in U2OS MAPK R19 cells expressing K-Ras(wt)
Test: MAPK reporter assay, nuclear versus cytoplasmic mCherry-Erk, U2OS MAPK R19
Type: cell-based
Details: Homo sapiens, 1 h, read-out: IC50 (inhibition of nuclear localization of mCherry-Erk)

{"columns": ["COMPOUND", "IC50"],
 "data": [
  ["O=C(NOC[C@H](O)CO)c1ccc(F)c(F)c1Nc1ccc(I)cc1F [PD 0329501]", "9 nM"]
]}
